Test system: SN12C renal
Assay: NCI-60 one-dose screen, 48 h (100 = growth as untreated, 0 = no growth, -100 = all killed)
Details: 10 µM unless noted
This is part of a sample that, as a whole, favours compounds with a hit. Of some 83,000 tested, about 20% had one in any assay.
Lab note: anything with growth below 70% is marked T; values at 70% or higher are marked F.

Incoming: Item CC1CCCN(CCCCCOc2ccc3oc4ccc(Cl)cc4c(=O)c3c2)C1 (configuration not stated) : growth beneath 70%, strictly?
Outgoing: F

Incoming: Item `C#Cc1ccccc1NC(=O)c1sc2nc3c(cc2c1N)CCCCCC3` : growth beneath 70%, strictly?
Outgoing: T

Incoming: Item `COc1ccc(C(=O)c2cc(OC)c(OC)c(OC)c2)cc1OC(=O)C(Cl)(Cl)Cl` : growth beneath 70%, strictly?
Outgoing: T

Incoming: Item `O=C(/C(=C/c1ccc([N+](=O)[O-])cc1)SCc1ccc(Cl)cc1)c1ccc(F)cc1` : growth beneath 70%, strictly?
Outgoing: T

Incoming: Item `Cc1c(Cl)cccc1NC(=O)c1sc2nc3c(cc2c1N)COCC3` : growth beneath 70%, strictly?
Outgoing: T

Incoming: Item `CCCCCOC(=O)c1ccccc1O` : growth beneath 70%, strictly?
Outgoing: F

Incoming: Item `C#C[C@@]1(O)[C@@H](CO)O[C@@H](n2cc(Cl)c3c(N)ccnc32)[C@@H]1O` : growth beneath 70%, strictly?
Outgoing: F

Incoming: Item CC(=O)Nc1nc2c(c(N)c1C#N)C(c1cccc(Cl)c1)C1=C(CCCC1=O)N2c1sc2c(c1C#N)CCCC2 (configuration not stated) : growth beneath 70%, strictly?
Outgoing: T

Incoming: Item Nc1ccc(C2=NN(C(=O)c3cc(-c4ccc(Cl)cc4)nc4ccccc34)C(c3ccc(Cl)cc3)C2)cc1 (configuration not stated) : growth beneath 70%, strictly?
Outgoing: T

Incoming: Item OCCNc1nc(NCCO)nc(Nc2ccc(C3=NN(c4cc(Cl)cc(Cl)c4)C(c4ccccc4)C3)cc2)n1 (configuration not stated) : growth beneath 70%, strictly?
Outgoing: T

Incoming: Item `Nc1ccccc1NS(=O)(=O)c1ccc(Cl)cc1` : growth beneath 70%, strictly?
Outgoing: F

Incoming: Item `O=S(=O)(Nc1nccs1)c1ccc(Nc2nc(-c3ccncc3)cs2)cc1` : growth beneath 70%, strictly?
Outgoing: F

Incoming: Item `COc1cc(/C=C/CO)cc(OC)c1O[C@@H]1O[C@H](CO)[C@@H](O)[C@H](O)[C@H]1O` : growth beneath 70%, strictly?
Outgoing: F

Incoming: Item `COc1ccc(-n2cc(COc3ccc4c5ccnc(C)c5n(CC(C)C)c4c3)nn2)cc1` : growth beneath 70%, strictly?
Outgoing: F

Incoming: Item `CCCCn1c(=O)c(/C=C/C(=O)/C=C/c2ccc(OC)cc2)cc2cc(Cl)ccc21` : growth beneath 70%, strictly?
Outgoing: F

Incoming: Item `C[C@@H]1C(=O)[C@@H]2C[C@@H](O)[C@@H](O)C[C@]2(C)[C@H]2CC[C@@]3(C)C(=C12)CC[C@@H]3[C@@](C)(O)[C@H](O)CCC(C)(C)O` : growth beneath 70%, strictly?
Outgoing: F

Incoming: Item `C=C1C(=O)O[C@H]2[C@H]1CCC(/C=N/c1ncc(Br)cc1N)=C\CC[C@@]1(C)O[C@@H]21` : growth beneath 70%, strictly?
Outgoing: T

Incoming: Item `NC(=O)C(O)(c1ccccc1)c1ccccc1` : growth beneath 70%, strictly?
Outgoing: F

Incoming: Item `C=C(C)[C@@H]1CC[C@]2(C(=O)n3ccnc3)CC[C@]3(C)[C@H](CC[C@@H]4[C@@]5(C)CCCNC(C)(C)[C@@H]5CC[C@]43C)[C@@H]12` : growth beneath 70%, strictly?
Outgoing: T

Incoming: Item `O=C(Nc1ccccc1)NS(=O)(=O)c1c[nH]c(=S)[nH]c1=O` : growth beneath 70%, strictly?
Outgoing: F
